This listing pairs binders with measured Efficacy (ELK-luciferase assay, relative to wild-type FGF21).
assayed.system: beta-klotho
assay.details: cell-based or functional assay
quantity: Efficacy (ELK-luciferase assay, relative to wild-type FGF21)

• FGF21 truncation mutant 1-172 (ligand) HPIPDSSPLLQFGGQVRQRYLYTDDAQQTEAHLEIREDGTVGGAADQSPESLLQLKALKPGVIQILGVKTSRFLCQRPDGALYGSLHFDPEACSFRELLLEDGYNVYQSEAHGLPLHLPGNKSPHRDPAPRGPARFLPLPGLPPAPPEPPGILAPQPPDVGSSDPLSMVGPS = 97.5%
• FGF21 truncation mutant 1-171 (ligand) HPIPDSSPLLQFGGQVRQRYLYTDDAQQTEAHLEIREDGTVGGAADQSPESLLQLKALKPGVIQILGVKTSRFLCQRPDGALYGSLHFDPEACSFRELLLEDGYNVYQSEAHGLPLHLPGNKSPHRDPAPRGPARFLPLPGLPPAPPEPPGILAPQPPDVGSSDPLSMVGP = 113%
• FGF21 truncation mutant 1-180 (ligand) HPIPDSSPLLQFGGQVRQRYLYTDDAQQTEAHLEIREDGTVGGAADQSPESLLQLKALKPGVIQILGVKTSRFLCQRPDGALYGSLHFDPEACSFRELLLEDGYNVYQSEAHGLPLHLPGNKSPHRDPAPRGPARFLPLPGLPPAPPEPPGILAPQPPDVGSSDPLSMVGPSQGRSPSYA = 93.2%
